- target-desc: 5-HT3A receptor C290A (Mus musculus, UniProt P23979, C317A)
- Sequence (P23979 24-489 C317A): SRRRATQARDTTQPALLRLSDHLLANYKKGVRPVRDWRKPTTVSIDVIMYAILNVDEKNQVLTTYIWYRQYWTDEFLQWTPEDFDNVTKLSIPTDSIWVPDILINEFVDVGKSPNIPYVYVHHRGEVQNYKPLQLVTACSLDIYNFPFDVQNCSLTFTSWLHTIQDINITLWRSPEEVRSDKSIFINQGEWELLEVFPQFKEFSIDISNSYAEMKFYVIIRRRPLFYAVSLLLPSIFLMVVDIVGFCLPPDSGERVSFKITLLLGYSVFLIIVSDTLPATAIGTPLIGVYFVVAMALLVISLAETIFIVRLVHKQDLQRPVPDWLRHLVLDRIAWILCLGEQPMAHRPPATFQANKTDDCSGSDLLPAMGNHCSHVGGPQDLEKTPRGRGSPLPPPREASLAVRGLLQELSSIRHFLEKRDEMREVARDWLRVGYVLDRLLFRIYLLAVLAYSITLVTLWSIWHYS
- test: [3H]GR65630 saturation binding, C290A receptor, HEK293 cell membranes
- assay-setup: mean and SEM, n ≥ 3
endpoint-label: pKd
Numbers only, as −log10 of the molar value.

Query block: Record request: pKd value, item Cc1[nH]cnc1CCC(=O)c1cn(C)c2ccccc12 [[^3H]GR65630]
Result block: 9.07
